Below, each entry is listed alongside its reported Ki.
Target: Calpain-2 catalytic subunit (Homo sapiens, UniProt P17655)
Sequence (P17655 whole entry): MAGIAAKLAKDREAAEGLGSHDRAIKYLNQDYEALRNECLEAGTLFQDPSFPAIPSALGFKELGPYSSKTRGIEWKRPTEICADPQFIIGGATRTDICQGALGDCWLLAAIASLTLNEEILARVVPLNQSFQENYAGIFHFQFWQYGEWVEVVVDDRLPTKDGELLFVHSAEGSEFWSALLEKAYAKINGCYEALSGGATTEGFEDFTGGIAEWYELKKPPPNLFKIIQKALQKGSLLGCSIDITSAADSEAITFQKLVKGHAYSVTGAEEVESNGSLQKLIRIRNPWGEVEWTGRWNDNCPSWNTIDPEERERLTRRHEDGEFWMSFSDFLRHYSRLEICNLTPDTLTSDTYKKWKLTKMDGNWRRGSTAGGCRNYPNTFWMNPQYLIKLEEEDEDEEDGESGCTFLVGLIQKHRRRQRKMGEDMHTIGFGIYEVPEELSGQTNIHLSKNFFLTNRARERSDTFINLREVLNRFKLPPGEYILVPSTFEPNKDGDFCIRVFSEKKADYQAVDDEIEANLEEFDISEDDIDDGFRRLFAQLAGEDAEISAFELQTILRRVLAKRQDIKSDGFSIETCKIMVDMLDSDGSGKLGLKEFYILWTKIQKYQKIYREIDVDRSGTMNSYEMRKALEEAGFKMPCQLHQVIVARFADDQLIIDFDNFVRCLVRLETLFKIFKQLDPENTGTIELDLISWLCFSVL
Assay: Compound was evaluated for the inhibition of Cysteine protease Calpain 2
measured_parameter: Ki (nM)

[
  {
    "compound": "CCCC(NC(=O)C(CC(C)C)NC(=O)OCc1ccccc1)C(=O)C(=O)NCCCN1CCOCC1 (configuration not stated)",
    "measurement_target": "Calpain-2 catalytic subunit (Homo sapiens, UniProt P17655)",
    "measured_parameter": "Ki",
    "quantitative_result": 100
  },
  {
    "compound": "CC(C)CC(NC(=O)OCc1ccccc1)C(=O)NC(Cc1ccccc1)C(=O)C(=O)NCC(O)c1c(F)c(F)c(F)c(F)c1F (configuration not stated)",
    "measurement_target": "Calpain-2 catalytic subunit (Homo sapiens, UniProt P17655)",
    "measured_parameter": "Ki",
    "quantitative_result": 350
  },
  {
    "compound": "CCC(NC(=O)C(CC(C)C)NC(=O)OCc1ccccc1)C(=O)C(=O)NCC(O)c1ccc2ccccc2c1 (configuration not stated)",
    "measurement_target": "Calpain-2 catalytic subunit (Homo sapiens, UniProt P17655)",
    "measured_parameter": "Ki",
    "quantitative_result": 110
  },
  {
    "compound": "CCC(NC(=O)C(CC(C)C)NC(=O)OCc1ccccc1)C(=O)C(=O)NCC(O)c1ccc(N(C)C)cc1 (configuration not stated)",
    "measurement_target": "Calpain-2 catalytic subunit (Homo sapiens, UniProt P17655)",
    "measured_parameter": "Ki",
    "quantitative_result": 410
  },
  {
    "compound": "CC(C)CC(NC(=O)OCc1ccccc1)C(=O)NC(Cc1ccccc1)C(=O)C(=O)NCC(O)c1cccc(C(F)(F)F)c1 (configuration not stated)",
    "measurement_target": "Calpain-2 catalytic subunit (Homo sapiens, UniProt P17655)",
    "measured_parameter": "Ki",
    "quantitative_result": 290
  },
  {
    "compound": "CCNC(=O)C(=O)C(CC)NC(=O)C(CC(C)C)NC(=O)c1ccco1 (configuration not stated)",
    "measurement_target": "Calpain-2 catalytic subunit (Homo sapiens, UniProt P17655)",
    "measured_parameter": "Ki",
    "quantitative_result": 580
  },
  {
    "compound": "CCC(NC(=O)C(CC(C)C)NC(=O)OCc1ccccc1)C(=O)C(=O)NCCCn1ccnc1 (configuration not stated)",
    "measurement_target": "Calpain-2 catalytic subunit (Homo sapiens, UniProt P17655)",
    "measured_parameter": "Ki",
    "quantitative_result": 68
  },
  {
    "compound": "CCC(NC(=O)C(CC(C)C)NC(=O)OCc1ccccc1)C(=O)C(=O)NCc1nccc2ccccc12 (configuration not stated)",
    "measurement_target": "Calpain-2 catalytic subunit (Homo sapiens, UniProt P17655)",
    "measured_parameter": "Ki",
    "quantitative_result": 150
  },
  {
    "compound": "CCNC(=O)C(=O)C(CC)NC(=O)C(CC(C)C)NC(=O)C(c1ccccc1)c1ccccc1 (configuration not stated)",
    "measurement_target": "Calpain-2 catalytic subunit (Homo sapiens, UniProt P17655)",
    "measured_parameter": "Ki",
    "quantitative_result": 1200
  },
  {
    "compound": "CC(C)CC(NC(=O)OCc1ccccc1)C(=O)NC(Cc1ccccc1)C(=O)C(=O)NCc1ccc2ccccc2n1 (configuration not stated)",
    "measurement_target": "Calpain-2 catalytic subunit (Homo sapiens, UniProt P17655)",
    "measured_parameter": "Ki",
    "quantitative_result": 23
  },
  {
    "compound": "CCC(NC(=O)C(CC(C)C)NC(=O)OCc1ccccc1)C(=O)C(=O)NCC(O)c1cccc2ccccc12 (configuration not stated)",
    "measurement_target": "Calpain-2 catalytic subunit (Homo sapiens, UniProt P17655)",
    "measured_parameter": "Ki",
    "quantitative_result": 170
  },
  {
    "compound": "CC(C)CC(NC(=O)OCc1ccccc1)C(=O)NC(Cc1ccccc1)C(=O)C(=O)NCC(O)c1ccc(Oc2ccccc2)cc1 (configuration not stated)",
    "measurement_target": "Calpain-2 catalytic subunit (Homo sapiens, UniProt P17655)",
    "measured_parameter": "Ki",
    "quantitative_result": 170
  },
  {
    "compound": "CC(C)CC(NC(=O)OCc1ccccc1)C(=O)NC(Cc1ccccc1)C(=O)C(=O)NCC(O)c1cccc(Oc2cccc(C(F)(F)F)c2)c1 (configuration not stated)",
    "measurement_target": "Calpain-2 catalytic subunit (Homo sapiens, UniProt P17655)",
    "measured_parameter": "Ki",
    "quantitative_result": 450
  },
  {
    "compound": "CC(C)CC(NC(=O)OCc1ccccc1)C(=O)NC(Cc1ccccc1)C(=O)C(=O)NCc1ccccn1 (configuration not stated)",
    "measurement_target": "Calpain-2 catalytic subunit (Homo sapiens, UniProt P17655)",
    "measured_parameter": "Ki",
    "quantitative_result": 270
  },
  {
    "compound": "CCC(NC(=O)C(CC(C)C)NC(=O)OCc1ccccc1)C(=O)C(=O)NCCNC(=O)CCCC[C@@H]1SC[C@@H]2NC(=O)N[C@@H]21 (some centres not stated)",
    "measurement_target": "Calpain-2 catalytic subunit (Homo sapiens, UniProt P17655)",
    "measured_parameter": "Ki",
    "quantitative_result": 280
  },
  {
    "compound": "CCC(NC(=O)C(CC(C)C)NC(=O)OCc1ccccc1)C(=O)C(=O)NCc1ccncc1 (configuration not stated)",
    "measurement_target": "Calpain-2 catalytic subunit (Homo sapiens, UniProt P17655)",
    "measured_parameter": "Ki",
    "quantitative_result": 110
  },
  {
    "compound": "CCC(NC(=O)C(CC(C)C)NC(=O)OCc1ccccc1)C(=O)C(=O)NCCc1cccn1C (configuration not stated)",
    "measurement_target": "Calpain-2 catalytic subunit (Homo sapiens, UniProt P17655)",
    "measured_parameter": "Ki",
    "quantitative_result": 76
  }
]

Data origin, for the record: BindingDB's records for doi:10.1021/jm950541c
